target.desc: BTK (Homo sapiens, UniProt Q06187)
Construct: purchased Thermo Fisher Scientific (SelectScreen service)
test.summary: SelectScreen kinase selectivity assay
Format: biochemical

[
  {
    "chemical.structure": "Cc1ccc(O)c(C)c1-n1c(N)c(C(N)=O)c2cc(CCCCCC(=O)NO)c(C)nc21",
    "IC50": "> 50 µM"
  }
]

====

target.desc: FGFR1 (Homo sapiens)
Construct: purchased Thermo Fisher Scientific (SelectScreen service)
Sequence (P11362 22-822): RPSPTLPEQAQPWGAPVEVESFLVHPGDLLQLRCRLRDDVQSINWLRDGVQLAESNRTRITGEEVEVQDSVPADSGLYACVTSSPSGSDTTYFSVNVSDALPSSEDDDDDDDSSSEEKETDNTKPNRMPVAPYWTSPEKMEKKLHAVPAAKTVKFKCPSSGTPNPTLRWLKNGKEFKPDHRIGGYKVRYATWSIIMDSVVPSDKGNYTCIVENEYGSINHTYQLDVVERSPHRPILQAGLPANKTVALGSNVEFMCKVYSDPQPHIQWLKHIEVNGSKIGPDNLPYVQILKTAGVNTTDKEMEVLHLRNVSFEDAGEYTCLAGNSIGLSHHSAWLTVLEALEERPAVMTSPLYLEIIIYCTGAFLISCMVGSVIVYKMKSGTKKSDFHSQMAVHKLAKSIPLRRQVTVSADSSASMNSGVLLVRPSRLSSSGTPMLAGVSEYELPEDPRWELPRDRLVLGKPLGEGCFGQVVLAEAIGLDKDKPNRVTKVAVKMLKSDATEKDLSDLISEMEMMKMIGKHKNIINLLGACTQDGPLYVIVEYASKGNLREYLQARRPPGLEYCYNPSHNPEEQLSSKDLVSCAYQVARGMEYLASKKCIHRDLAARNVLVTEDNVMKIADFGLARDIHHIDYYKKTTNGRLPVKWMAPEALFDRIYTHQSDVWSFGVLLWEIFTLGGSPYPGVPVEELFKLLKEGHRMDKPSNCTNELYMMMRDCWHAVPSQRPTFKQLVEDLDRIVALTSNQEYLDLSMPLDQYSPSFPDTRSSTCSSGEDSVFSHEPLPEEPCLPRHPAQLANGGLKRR
test.summary: SelectScreen kinase selectivity assay
Type: biochemical
measure.name: IC50

[
  {
    "chemical.structure": "Cc1ccc(O)c(C)c1-n1c(N)c(C(N)=O)c2cc(CCCCCC(=O)NO)c(C)nc21",
    "target.desc": "FGFR1 (Homo sapiens)",
    "result": "> 50 µM"
  }
]

====

target.desc: FGR (Homo sapiens, UniProt P09769)
Construct: purchased Thermo Fisher Scientific (SelectScreen service)
test.summary: SelectScreen kinase selectivity assay
Format: biochemical
measure.name: IC50

[
  {
    "chemical.structure": "Cc1ccc(O)c(C)c1-n1c(N)c(C(N)=O)c2cc(CCCCCC(=O)NO)c(C)nc21",
    "result": "> 50 µM"
  }
]

====

target.desc: DDR2 (Homo sapiens, UniProt Q16832)
Construct: purchased Thermo Fisher Scientific (SelectScreen service)
Sequence (Q16832 22-855): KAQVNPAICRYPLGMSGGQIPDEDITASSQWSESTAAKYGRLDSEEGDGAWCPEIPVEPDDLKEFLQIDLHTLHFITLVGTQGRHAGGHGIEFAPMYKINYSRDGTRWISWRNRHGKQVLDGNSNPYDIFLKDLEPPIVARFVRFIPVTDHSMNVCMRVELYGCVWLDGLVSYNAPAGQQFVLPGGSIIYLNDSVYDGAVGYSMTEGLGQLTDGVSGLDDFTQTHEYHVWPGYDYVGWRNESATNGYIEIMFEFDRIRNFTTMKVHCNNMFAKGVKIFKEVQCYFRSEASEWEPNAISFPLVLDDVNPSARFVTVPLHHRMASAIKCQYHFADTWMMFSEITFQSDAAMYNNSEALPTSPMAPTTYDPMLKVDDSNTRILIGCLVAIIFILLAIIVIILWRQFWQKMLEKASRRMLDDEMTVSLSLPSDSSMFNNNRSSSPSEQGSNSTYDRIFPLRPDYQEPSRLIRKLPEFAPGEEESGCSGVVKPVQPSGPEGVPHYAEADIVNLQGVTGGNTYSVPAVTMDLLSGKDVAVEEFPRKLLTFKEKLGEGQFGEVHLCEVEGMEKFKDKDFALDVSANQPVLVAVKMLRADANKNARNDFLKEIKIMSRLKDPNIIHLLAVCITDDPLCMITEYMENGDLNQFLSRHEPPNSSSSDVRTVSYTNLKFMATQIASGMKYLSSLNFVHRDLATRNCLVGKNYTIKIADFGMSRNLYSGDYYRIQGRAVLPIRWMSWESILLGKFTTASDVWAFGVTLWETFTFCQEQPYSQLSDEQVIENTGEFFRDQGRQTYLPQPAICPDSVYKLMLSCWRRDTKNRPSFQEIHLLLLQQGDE
test.summary: SelectScreen kinase selectivity assay
Type: biochemical
measure.name: IC50

[
  {
    "chemical.structure": "Cc1ccc(O)c(C)c1-n1c(N)c(C(N)=O)c2cc(CCCCCC(=O)NO)c(C)nc21",
    "target.desc": "DDR2 (Homo sapiens, UniProt Q16832)",
    "measure.name": "IC50",
    "result": "> 50 µM"
  }
]

====

target.desc: CSF1R (Homo sapiens, UniProt P07333)
Construct: purchased Thermo Fisher Scientific (SelectScreen service)
Sequence (P07333 20-972): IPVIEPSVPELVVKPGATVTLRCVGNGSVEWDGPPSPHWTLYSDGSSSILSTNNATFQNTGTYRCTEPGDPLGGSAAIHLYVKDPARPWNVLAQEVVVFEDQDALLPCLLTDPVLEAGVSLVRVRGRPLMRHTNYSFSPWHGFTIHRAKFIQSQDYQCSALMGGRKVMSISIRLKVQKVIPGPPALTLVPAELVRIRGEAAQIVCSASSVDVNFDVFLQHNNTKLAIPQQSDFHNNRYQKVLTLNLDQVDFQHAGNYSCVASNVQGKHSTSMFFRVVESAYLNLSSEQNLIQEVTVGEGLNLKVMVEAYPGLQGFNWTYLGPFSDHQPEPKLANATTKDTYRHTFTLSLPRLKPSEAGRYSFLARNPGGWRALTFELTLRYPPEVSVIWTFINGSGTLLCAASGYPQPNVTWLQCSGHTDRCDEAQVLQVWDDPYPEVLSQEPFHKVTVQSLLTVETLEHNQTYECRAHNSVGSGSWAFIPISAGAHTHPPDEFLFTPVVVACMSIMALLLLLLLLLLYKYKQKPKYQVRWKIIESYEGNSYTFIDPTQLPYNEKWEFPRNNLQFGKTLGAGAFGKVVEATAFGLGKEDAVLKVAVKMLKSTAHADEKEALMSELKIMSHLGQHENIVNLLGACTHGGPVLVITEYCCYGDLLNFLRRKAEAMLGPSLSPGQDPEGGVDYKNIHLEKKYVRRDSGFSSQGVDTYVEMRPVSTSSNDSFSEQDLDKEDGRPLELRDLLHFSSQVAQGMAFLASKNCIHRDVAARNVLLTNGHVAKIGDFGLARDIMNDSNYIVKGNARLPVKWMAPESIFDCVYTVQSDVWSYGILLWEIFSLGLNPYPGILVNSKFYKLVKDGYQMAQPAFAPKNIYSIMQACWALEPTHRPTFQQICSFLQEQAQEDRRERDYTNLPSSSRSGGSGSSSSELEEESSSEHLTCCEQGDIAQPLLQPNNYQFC
test.summary: SelectScreen kinase selectivity assay
Format: biochemical
measure.name: IC50

[
  {
    "compound": "Cc1ccc(O)c(C)c1-n1c(N)c(C(N)=O)c2cc(CCCCCC(=O)NO)c(C)nc21 [PKHD-5]",
    "measure.name": "IC50",
    "result": "> 50 µM"
  }
]

====

target.desc: ABL1 (Homo sapiens, UniProt P00519)
Construct: purchased Thermo Fisher Scientific (SelectScreen service)
Sequence (P00519 whole entry): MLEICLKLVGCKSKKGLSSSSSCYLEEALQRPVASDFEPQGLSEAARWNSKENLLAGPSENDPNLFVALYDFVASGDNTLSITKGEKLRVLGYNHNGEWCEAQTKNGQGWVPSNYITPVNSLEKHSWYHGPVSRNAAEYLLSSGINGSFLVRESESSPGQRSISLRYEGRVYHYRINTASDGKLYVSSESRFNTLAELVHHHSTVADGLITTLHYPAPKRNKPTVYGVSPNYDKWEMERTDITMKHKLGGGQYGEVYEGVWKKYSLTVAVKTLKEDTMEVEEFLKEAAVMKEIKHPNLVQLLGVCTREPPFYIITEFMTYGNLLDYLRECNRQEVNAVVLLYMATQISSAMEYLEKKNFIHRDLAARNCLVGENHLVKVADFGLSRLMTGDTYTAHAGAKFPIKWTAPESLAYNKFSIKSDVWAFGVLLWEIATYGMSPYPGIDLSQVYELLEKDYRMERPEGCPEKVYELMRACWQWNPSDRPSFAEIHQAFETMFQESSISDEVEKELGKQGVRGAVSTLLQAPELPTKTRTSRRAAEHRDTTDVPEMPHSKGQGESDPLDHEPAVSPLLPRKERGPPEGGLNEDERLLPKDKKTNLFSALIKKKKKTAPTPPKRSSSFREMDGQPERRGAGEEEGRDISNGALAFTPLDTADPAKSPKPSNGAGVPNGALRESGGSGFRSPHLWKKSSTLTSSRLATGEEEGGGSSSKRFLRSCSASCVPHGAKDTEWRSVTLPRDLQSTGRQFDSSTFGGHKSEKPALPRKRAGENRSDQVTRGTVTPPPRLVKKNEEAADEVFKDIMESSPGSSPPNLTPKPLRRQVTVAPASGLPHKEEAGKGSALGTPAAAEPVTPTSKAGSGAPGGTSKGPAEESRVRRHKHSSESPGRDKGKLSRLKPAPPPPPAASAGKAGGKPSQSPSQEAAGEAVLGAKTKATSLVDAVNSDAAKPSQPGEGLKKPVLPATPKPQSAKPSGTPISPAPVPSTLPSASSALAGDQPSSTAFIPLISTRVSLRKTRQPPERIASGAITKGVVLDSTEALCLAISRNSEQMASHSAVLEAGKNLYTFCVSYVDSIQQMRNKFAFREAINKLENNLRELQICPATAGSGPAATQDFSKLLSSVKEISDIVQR
test.summary: SelectScreen kinase selectivity assay
Type: biochemical
measure.name: IC50

[
  {
    "chemical.structure": "Cc1ccc(O)c(C)c1-n1c(N)c(C(N)=O)c2cc(CCCCCC(=O)NO)c(C)nc21",
    "result": "> 50 µM"
  }
]

====

target.desc: EPHA5 (Homo sapiens, UniProt P54756)
Construct: purchased Thermo Fisher Scientific (SelectScreen service)
Sequence (P54756 25-1037): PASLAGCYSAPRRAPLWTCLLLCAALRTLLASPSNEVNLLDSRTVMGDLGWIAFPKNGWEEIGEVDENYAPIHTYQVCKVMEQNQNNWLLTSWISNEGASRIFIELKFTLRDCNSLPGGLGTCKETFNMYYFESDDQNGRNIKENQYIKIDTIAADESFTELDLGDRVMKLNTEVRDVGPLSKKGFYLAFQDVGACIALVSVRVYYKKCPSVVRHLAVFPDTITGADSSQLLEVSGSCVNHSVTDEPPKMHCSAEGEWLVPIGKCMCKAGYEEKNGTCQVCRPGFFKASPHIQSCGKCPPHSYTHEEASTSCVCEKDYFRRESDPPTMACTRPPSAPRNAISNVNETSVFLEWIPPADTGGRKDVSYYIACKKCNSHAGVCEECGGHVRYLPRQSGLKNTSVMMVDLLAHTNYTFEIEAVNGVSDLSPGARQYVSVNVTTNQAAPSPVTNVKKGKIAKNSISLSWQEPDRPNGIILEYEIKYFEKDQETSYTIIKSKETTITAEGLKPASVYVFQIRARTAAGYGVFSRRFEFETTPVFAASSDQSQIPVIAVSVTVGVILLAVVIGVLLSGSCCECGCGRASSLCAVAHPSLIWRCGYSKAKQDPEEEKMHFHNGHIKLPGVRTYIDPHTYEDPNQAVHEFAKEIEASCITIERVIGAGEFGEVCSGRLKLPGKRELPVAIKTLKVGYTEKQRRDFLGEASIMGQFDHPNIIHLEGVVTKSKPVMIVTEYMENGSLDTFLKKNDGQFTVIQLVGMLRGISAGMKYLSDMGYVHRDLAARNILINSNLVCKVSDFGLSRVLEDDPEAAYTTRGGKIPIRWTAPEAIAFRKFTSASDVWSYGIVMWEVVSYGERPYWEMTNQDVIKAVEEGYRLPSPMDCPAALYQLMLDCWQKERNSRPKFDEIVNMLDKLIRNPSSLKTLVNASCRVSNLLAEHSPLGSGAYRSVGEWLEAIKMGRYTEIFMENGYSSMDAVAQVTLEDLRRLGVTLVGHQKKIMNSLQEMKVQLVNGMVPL
test.summary: SelectScreen kinase selectivity assay
Assay type: biochemical
measure.name: IC50

[
  {
    "chemical.structure": "Cc1ccc(O)c(C)c1-n1c(N)c(C(N)=O)c2cc(CCCCCC(=O)NO)c(C)nc21",
    "result": "> 50 µM"
  }
]

====

test.summary: In vivo pharmacokinetics
reported.conditions: BALB/c, mouse, plasma; mice, IP, 5 mg/kg

[
  {
    "compound": "Cc1ccc(O)c(C)c1-n1c(N)c(C(N)=O)c2cc(CCCCCC(=O)NO)c(C)nc21 [PKHD-5]",
    "Cmax / µM": 3.26
  }
]

====

target.desc: NTRK1 (Homo sapiens, UniProt P04629)
Construct: purchased Thermo Fisher Scientific (SelectScreen service)
test.summary: SelectScreen kinase selectivity assay
Format: biochemical
Procedure: The kinase selectivity analysis of PKHD-5 was performed using the SelectScreen kinase analysis service provided by Thermo Fisher Scientific. […] Ultimately, the IC50 values were calculated based on the concentration-inhibition curves by fitting a four-parameter logistic curve, thereby assessing the potency and selectivity of the inhibitors. […]

[
  {
    "chemical.structure": "Cc1ccc(O)c(C)c1-n1c(N)c(C(N)=O)c2cc(CCCCCC(=O)NO)c(C)nc21",
    "IC50": "> 50 µM"
  }
]

Reference source for all entries: paper PMC11604427
